molecular target: Protein disulfide-isomerase (Homo sapiens); experiment: inhibition of PDI-catalysed insulin clumping – biochemical, turbidity, dry powder samples, set 3, confirmation (AID 652199); conditions: absorbance 650 nm, 90 min;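 active = half-maximal inhibitory concentration AC50 at or below 30 µM; inactive = the rest, including compounds with no fitted curve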
The reply should name one outcome from T = active, F = inactive

Answered cases to consult:
Just curious, what result did CC(C)OC(=O)C1(CCOc2ccccc2)CCN(Cc2ccc(O)c(Cl)c2)CC1 get here?
T

Just curious, what result did C/C1=C\[C@@H](O)C(C)(C)CCCC2(C)OC2C[C@@H]1OC(=O)c1ccc(O)cc1 (some centres not stated) get here?
T

Just curious, what result did CC(C)(C)OC(=O)C1(CCOc2ccccc2)CCN(Cc2ccc(O)c(Cl)c2)CC1 get here?
T

Turning now to a further record.
Just curious, what result did CCOC(=O)C1(CCOc2ccccc2)CCN(Cc2ccc(O)c(Cl)c2)CC1 get here?
T

###

target: Protein disulfide-isomerase (Homo sapiens); experiment: inhibition of PDI-catalysed insulin clumping – biochemical, turbidity, dry powder samples, set 3, confirmation (AID 652199); conditions: absorbance 650 nm, 90 min
Active and inactive are the calls of the source.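 How the source made its calls: active means half-maximal inhibitory concentration AC50 at or below 30 µM; inactive means the rest, including compounds with no fitted curve.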
The reply should name one outcome from Yes for active, No for inactive

Just curious, what result did O=C(NC1CCCC1)C1(CCOc2ccccc2)CCN(Cc2ccc(O)c(Cl)c2)CC1 get here?
Yes

Just curious, what result did CCOC(=O)c1c(CN2CCN(CCO)CC2)n(-c2ccccc2)c2cc(Br)c(O)cc12 get here?
Yes

Just curious, what result did CCOC(=O)C1(CCOc2ccccc2)CCN(Cc2ccc(O)cc2)CC1 get here?
Yes

Just curious, what result did CCN(C)C(=O)C1(CCOc2ccccc2)CCN(Cc2ccc(O)c(Cl)c2)CC1 get here?
Yes

Just curious, what result did CCOC(=O)C1(CCOc2ccccc2)CCN(C(=O)c2ccc(O)c(Cl)c2)CC1 get here?
Yes

Just curious, what result did CCOC(=O)C1(CCOc2ccccc2)CCN(Cc2ccc(OC)c(Cl)c2)CC1 get here?
No

Just curious, what result did O=C(Nc1ccccc1)C1(CCOc2ccccc2)CCN(Cc2ccc(O)c(Cl)c2)CC1 get here?
Yes

Turning now to a further record.
Just curious, what result did C/C1=C\C[C@H](OC(=O)c2ccc(O)cc2)/C(C)=C/[C@@H](O)C(C)(C)CCC1 get here?
Yes
